# target under test: KRas G12C (Homo sapiens, UniProt P01116, G12C)
# Construct: NCI-H358 cells (ATCC CRL-5807) express KRas G12C
# Sequence (P01116 1-188 isoform P01116-2 G12C): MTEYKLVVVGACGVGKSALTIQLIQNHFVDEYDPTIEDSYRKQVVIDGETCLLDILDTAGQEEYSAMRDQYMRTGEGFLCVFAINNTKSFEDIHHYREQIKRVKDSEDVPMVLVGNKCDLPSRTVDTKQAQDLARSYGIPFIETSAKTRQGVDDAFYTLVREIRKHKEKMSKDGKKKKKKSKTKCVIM
# measurement notes: Inhibition of KRas G12C-dependent cell growth: Phospho-ERK in NCI-H358 cells
# condition description: NCI-H358 cells expressing KRas G12C; Phospho-ERK (Thr202/Tyr204) normalized to GAPDH; 3 hours compound; 4 parameter fit
Threshold-based label: IC50 under 600 nM gives T, IC50 not under 600 nM gives F.

Worked set:
INSERT INTO measurements (molecular_string, target_under_test, answer_label) VALUES
  ('C=CC(=O)N1CC[C@@H]2[C@H]1CN2c1ncnc2c(F)c(-c3cccc4ccc(F)c(CC)c34)ncc12', 'KRas G12C (Homo sapiens, UniProt P01116, G12C)', 'T'),
  ('C=C(F)C(=O)N1CCN(c2nc(OC[C@@H]3CCCN3C)nc3c(F)c(-c4cccc5cccc(Cl)c45)ncc23)[C@H](C)C1', 'KRas G12C (Homo sapiens, UniProt P01116, G12C)', 'F'),
  ('COC/C=C/C(=O)N1CCN(c2nc(OC[C@@H]3CCCN3C)nc3c(F)c(-c4cncc5cccc(Cl)c45)ncc23)C[C@@H]1CC#N', 'KRas G12C (Homo sapiens, UniProt P01116, G12C)', 'T'),
  ('C=CC(=O)N1CCN(c2nc(OC[C@@H]3CCCN3C)nc3c(F)c(-c4cccc5ccc(F)c(Cl)c45)ncc23)C[C@H]1C', 'KRas G12C (Homo sapiens, UniProt P01116, G12C)', 'T');

Take the compound C=C(F)C(=O)N1CCN(c2nc(OCC3CN(C)C3)nc3c(F)c(-c4cccc5ccc(F)c(Cl)c45)ncc23)C[C@@H]1CC#N and say whether its IC50 is less than 600 nM.
T

Take the compound C=CC(=O)N1CCN(c2ncnc3c(F)c(-c4c(O)ccc5ccccc45)ncc23)CC1 and say whether its IC50 is less than 600 nM.
F

Take the compound C#Cc1cccc2cc(O)cc(-c3ncc4c(N5C[C@@H]6[C@H]5CCN6C(=O)C=C)ncnc4c3F)c12 and say whether its IC50 is less than 600 nM.
T

Take the compound C=CC(=O)N1CC[C@@H]2[C@H]1CN2c1nc(OC[C@@H]2[C@H]3C[C@H]3CN2C)nc2c(F)c(-c3cccc4ccc(F)c(Cl)c34)ncc12 and say whether its IC50 is less than 600 nM.
T

Take the compound C=C(F)C(=O)N1CCN(c2nc(OC[C@@H]3CCCN3C3CC3)nc3c(F)c(-c4cccc5ccc(F)c(Cl)c45)ncc23)C[C@@H]1CC#N and say whether its IC50 is less than 600 nM.
T

Take the compound C=C(F)C(=O)N1CCN(c2nc(OCCC(F)(F)F)nc3c(F)c(-c4cccc5ccc(F)c(Cl)c45)ncc23)C[C@@H]1CC#N and say whether its IC50 is less than 600 nM.
F

Take the compound C=CC(=O)N1CCN(c2ncnc3c(F)c(-c4cc(O)cc5ccccc45)ncc23)CC1 and say whether its IC50 is less than 600 nM.
F

Take the compound C=CS(=O)(=O)N1CCN(c2ncnc3c(F)c(-c4cccc5ccc(F)c(Cl)c45)ncc23)CC1 and say whether its IC50 is less than 600 nM.
F
